Reported IC50 values for a set of molecules
System: PANC-1 cancer cells
Assay: Anti-austerity assay (cytotoxicity under glucose starvation vs normal glucose)
Conditions: Homo sapiens, PANC-1, 12 h, read-out: Anti-Austerity Activity (IC50 ± SE) Glucose +
VALUE TYPE: IC50

>>> result("CCC(C)C=CC=C(C)CC(C)C=CC=CC1OC(=O)C(O)C2OC12C (centres unmarked) [Compound 9, nafuredin A]")
"76.7 µM"
>>> result("COc1ccc(C2SSC34CC5(O)C(Cl)C=CC(O)C5ON3C(=O)C2NC4=O)c(O)c1OC (centres unmarked) [Compound 4, DC1149B]")
"213 µM"
>>> result("CC(C)[C@@H](C)/C=C/[C@@H](C)[C@H]1CC[C@@H]2[C@]1(C)CC[C@H]1[C@]23C=C[C@]2(C[C@@H](O)CC[C@]12C)OO3 [Compound 5, ergosterol peroxide]")
"> 100 µM"
>>> result("COc1cc(O)c2c(=O)c(C)c(C)oc2c1 [Compound 8, 5-hydroxy-2,3-dimethyl-7-methoxychromone]")
"> 100 µM"
>>> result("COc1ccc2cc(NC(=O)C3=NO[C@H]4[C@H](O)C=C[C@@H](Cl)[C@@]4(O)C3)c(=O)oc2c1OC [Compound 2, trichodermamide B]")
"11.6 µM"
>>> result("COc1ccc2cc(NC(=O)C3=NO[C@H]4[C@H](O)C=C[C@@H](O)[C@@]4(O)C3)c(=O)oc2c1OC [Compound 1, trichodermamide A]")
"> 100 µM"
>>> result("COc1ccc2cc(NC(=O)[C@@]34C[C@@]5(O)C(ON3)[C@H](O)C=C[C@H]5S4)c(=O)oc2c1OC (some centres unmarked) [Compound 3, aspergillazine A]")
"> 400 µM"
>>> result("CCCCCC[C@H]1C(=O)O[C@H](C)[C@H](NC(=O)c2cccc(NC=O)c2O)C(=O)O[C@@H](C)[C@@H]1OC(=O)CC(C)C [Antimycin A, reference compound]")
"> 300 µM"

====

Tested on: PANC-1 human pancreas cell line
Assay: Antiproliferative WST-8 assay, PANC-1
Format: cell-based
Settings: Homo sapiens, PANC-1, 48 h; read-out: Antiproliferative Activity (IC50 ± SE) PANC-1
pIC50: −log10 of the molar value.
Reported pIC50 values for the following compounds.
VALUE TYPE: pIC50

>>> recorded_number("CCC(C)C=CC=C(C)CC(C)C=CC=CC1OC(=O)C(O)C2OC12C (stereo not shown)")
4.82
>>> recorded_number("COc1ccc(C2SSC34CC5(O)C(Cl)C=CC(O)C5ON3C(=O)C2NC4=O)c(O)c1OC (stereo not shown) [Compound 4, DC1149B]")
4.61
>>> recorded_number("COc1ccc2cc(NC(=O)[C@@]34C[C@@]5(O)C(ON3)[C@H](O)C=C[C@H]5S4)c(=O)oc2c1OC (stereo partly shown)")
4.30
>>> recorded_number("COc1ccc2cc(NC(=O)C3=NO[C@H]4[C@H](O)C=C[C@@H](Cl)[C@@]4(O)C3)c(=O)oc2c1OC [Compound 2, trichodermamide B]")
5.45

====

System: KMS-11 human myeloma cell line
Test: Antiproliferative WST-8 assay, KMS-11
Assay type: cell-based
Conditions: Homo sapiens, KMS-11, 48 h; read-out: Antiproliferative Activity (IC50 ± SE) KMS-11
pIC50: −log10 of the molar value.
VALUE TYPE: pIC50

>>> recorded_number("CCC(C)C=CC=C(C)CC(C)C=CC=CC1OC(=O)C(O)C2OC12C (stereo not shown)")
5.16
>>> recorded_number("COc1ccc2cc(NC(=O)C3=NO[C@H]4[C@H](O)C=C[C@@H](Cl)[C@@]4(O)C3)c(=O)oc2c1OC [Compound 2, trichodermamide B]")
5.86
>>> recorded_number("COc1ccc2cc(NC(=O)[C@@]34C[C@@]5(O)C(ON3)[C@H](O)C=C[C@H]5S4)c(=O)oc2c1OC (stereo partly shown)")
4.42
>>> recorded_number("COc1ccc(C2SSC34CC5(O)C(Cl)C=CC(O)C5ON3C(=O)C2NC4=O)c(O)c1OC (stereo not shown) [Compound 4, DC1149B]")
5.12

Origin of measurements: paper PMC11085134
